Provenance of the data: PubChem BioAssay AID430

Assay Details: cytotoxicity in HPDE-C7 cells, cell-based, fluorescence, HTS (AID 430);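 further: cells exposed to compound for 48 hours before viability readout; 0% = vehicle and 100% = reference cytotoxic drug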
Assay Conditions: HPDE-C7 pancreatic duct cells viability, at 10 µM, hits give high values
About 1,100 (1.7%) of roughly 63,000 compounds were called active. Many of the other results were omitted from the sample, so actives are more common in it than they were. Measured potencies and affinities stand elsewhere.
Endpoint: cytotoxicity (%)
Respond numerically; units are % and should not be typed.

In the examples that follow, each entry is paired with its recorded cytotoxicity.
Cc1csc(SCC(=O)Nc2c(C)n(C)n(-c3ccccc3)c2=O)n1 = 3.8
CCn1c(C)c(C(C)=O)c(N2CCCCC2)nc1=S = -8.3
CCCc1nc(NC2CCCCC2)c(C#N)c2c1COC(C)(C)C2 = -4.4

Enquiry: Which measured cytotoxicity value corresponds to CC(C)=CC(=O)Nc1ccccc1C(N)=O ?
Return: 3.7

Enquiry: Same lookup for Cc1ccc2c(c1)c1ncnc(N3CCOCC3)c1n2C , please.
Return: -13.7

Enquiry: Same read-out for CCOC(=O)C1CCN(C(=O)Nc2ccccc2Cl)CC1 ?
Return: 4

Enquiry: Try O=C(Nc1ccc(O)cc1)c1ccc(C(=O)c2ccccc2)o1 next.
Return: -1.5

Enquiry: Proceed to CCc1nc(NC2CCCCC2)c(C#N)c2c1COC(C)(C)C2
Return: 63.4

Enquiry: Now the same for C/C(NCCN1CCOCC1)=C(\C#N)C(N)=O
Return: -5.5

Enquiry: COC(=O)C1=C(C)N(c2ccc(Cl)c(Cl)c2)C(=O)C1 ?
Return: 84.2

Enquiry: What would you report for CCn1c(SCC(=O)c2cc(OC)ccc2OC)nnc1-c1ccncc1 ?
Return: 6.4

Enquiry: What would you report for CC(Oc1ccc(Cl)cc1Cl)C(=O)Nc1ccncc1 (configuration not stated) ?
Return: -0.5

----------
Assay Details: cytotoxicity in HPDE-C7 cells, cell-based, fluorescence, HTS (AID 430);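 further: cells exposed to compound for 48 hours before viability readout; 0% = vehicle and 100% = reference cytotoxic drug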
Assay Conditions: HPDE-C7 pancreatic duct cells viability, at 10 µM
About 1,100 (1.7%) of roughly 63,000 compounds were called active. No stated cut-off is given here; in the data, active means cytotoxicity above about 50%; inactive means the rest. Only a selection was taken, and actives are over-represented in it overall. Results with a measured potency or affinity are listed apart.
Use one of these outcomes when replying: active, inactive

Here's what some known entries look like.
CCOC(=O)COc1cccc2c(=O)n(CC(=O)N3CCc4ccccc43)ccc12 = inactive
COc1cc2c(C#N)c(N3CCN(c4ccccc4OC)CC3)nc(N)c2c(N)n1 = active
CC1Cc2ccccc2N1C(=O)CSc1ncccc1C(=O)O (configuration not stated) = inactive
CCOC(=O)C(C)Oc1cccc2c(=O)n(CC(=O)NCc3ccc4c(c3)OCO4)ccc12 (configuration not stated) = active
CCC(C)NCC(O)COCc1ccc(Cl)cc1 (configuration not stated) = inactive
CCOC(=O)COc1cccc2c(=O)n(CC(=O)N3CCN(C(=O)OCC)CC3)ccc12 = inactive
c1ccc(-c2ccc(-c3ccccn3)nn2)nc1 = inactive
COc1ccc(N2CCN(Cc3nc(N)nc(Nc4ccc(C)c(Cl)c4)n3)CC2)cc1 = inactive
Cc1cnc(C(=O)Nc2ccc(N3CCN(C(=O)OC(C)(C)C)CC3)cc2)cn1 = active
CCOC(=O)C(C)Oc1cccc2c(=O)n(CC(=O)N3CCN(C(=O)OCC)CC3)ccc12 (configuration not stated) = inactive

Enquiry: Recorded test outcome, item Cc1cccc(Nc2nc(N)nc(CN3CCN(c4ccccc4)CC3)n2)c1
Return: inactive

Enquiry: Here is the next compound: N#Cc1c(N2CCCC2)nc(N)c2c(N)nc(N3CCCC3)cc12
Return: inactive

Enquiry: What about this compound? CCOC(=O)C(C)Oc1cccc2c(=O)n(CC(=O)NCc3ccco3)ccc12 (configuration not stated)
Return: active

Enquiry: Similarly, COc1cc2c(C#N)c(N3CCCCC3)nc(N)c2c(N)n1 ?
Return: inactive
